As shown below, each of these binders has a reported pIC50 value.
# Tested System: T1, HLA DP molecule DPB1*0401 (human)
# T1 chain 1: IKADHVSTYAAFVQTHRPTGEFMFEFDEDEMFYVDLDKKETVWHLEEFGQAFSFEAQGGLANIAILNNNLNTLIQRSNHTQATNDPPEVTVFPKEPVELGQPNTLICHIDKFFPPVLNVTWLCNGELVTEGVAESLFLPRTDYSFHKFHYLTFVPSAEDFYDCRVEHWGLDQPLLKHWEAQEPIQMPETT
# T1 chain 2: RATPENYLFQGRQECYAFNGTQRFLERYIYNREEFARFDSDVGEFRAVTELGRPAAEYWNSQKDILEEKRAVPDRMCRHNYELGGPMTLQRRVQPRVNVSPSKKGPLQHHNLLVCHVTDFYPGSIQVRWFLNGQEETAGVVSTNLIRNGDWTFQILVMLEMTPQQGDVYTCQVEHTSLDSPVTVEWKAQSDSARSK
# Assay Method Text: inhibition of radiolabeled peptide binding to purified HLA DP
pIC50: −log10 of the molar value.

- Binder: "VADAYITLVTLPKSS (modifications not checked) [Alt a 1 peptide, position 143 (Peptide ID 3324.0016)]"
  pIC50: 5.60
- Binder: "ITYVATATLPNYCRA (modifications not checked) [Alt a 1 peptide, position 116 (Peptide ID 3324.0014)]"
  pIC50: 5.52
- Binder: "KVSDDITYVATATLP (modifications not checked) [Alt a 1 peptide, position 111 (Peptide ID 3324.0013)]"
  pIC50: 5.79

The values you see were collected from patent US20150004189A1.
